- target system: T1, integrin αVβ5 (UniProt P06756 31-992; P18084 24-719)
- T1 construct: Coated on the ELISA plate
- T1 sequence (P06756 31-992, chain 1 of 2): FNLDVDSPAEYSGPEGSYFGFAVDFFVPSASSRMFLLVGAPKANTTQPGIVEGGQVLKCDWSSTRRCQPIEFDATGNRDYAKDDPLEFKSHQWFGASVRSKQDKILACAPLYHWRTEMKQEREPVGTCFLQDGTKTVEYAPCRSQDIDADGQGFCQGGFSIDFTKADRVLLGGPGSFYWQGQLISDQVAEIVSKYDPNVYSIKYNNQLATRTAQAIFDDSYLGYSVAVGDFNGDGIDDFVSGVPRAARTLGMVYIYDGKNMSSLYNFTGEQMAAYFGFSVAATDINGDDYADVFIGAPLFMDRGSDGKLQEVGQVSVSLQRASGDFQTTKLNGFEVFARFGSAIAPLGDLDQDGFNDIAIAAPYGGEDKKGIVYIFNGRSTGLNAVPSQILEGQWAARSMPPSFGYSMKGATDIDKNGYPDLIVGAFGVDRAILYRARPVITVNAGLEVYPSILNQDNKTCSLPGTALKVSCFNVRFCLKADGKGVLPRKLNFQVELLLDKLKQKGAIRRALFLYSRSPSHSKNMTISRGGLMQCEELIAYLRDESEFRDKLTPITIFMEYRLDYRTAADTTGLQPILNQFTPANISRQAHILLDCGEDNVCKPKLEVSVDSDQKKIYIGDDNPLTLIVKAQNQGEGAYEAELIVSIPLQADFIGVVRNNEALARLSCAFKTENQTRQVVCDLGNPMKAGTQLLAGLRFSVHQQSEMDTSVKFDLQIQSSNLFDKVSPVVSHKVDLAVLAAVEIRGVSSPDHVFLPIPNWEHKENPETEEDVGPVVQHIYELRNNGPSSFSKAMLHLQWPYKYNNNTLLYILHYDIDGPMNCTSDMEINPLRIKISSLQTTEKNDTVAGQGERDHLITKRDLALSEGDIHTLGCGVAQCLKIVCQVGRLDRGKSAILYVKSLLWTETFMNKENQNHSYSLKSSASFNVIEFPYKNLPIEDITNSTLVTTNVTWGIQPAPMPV
- T1 sequence (P18084 24-719, chain 2 of 2): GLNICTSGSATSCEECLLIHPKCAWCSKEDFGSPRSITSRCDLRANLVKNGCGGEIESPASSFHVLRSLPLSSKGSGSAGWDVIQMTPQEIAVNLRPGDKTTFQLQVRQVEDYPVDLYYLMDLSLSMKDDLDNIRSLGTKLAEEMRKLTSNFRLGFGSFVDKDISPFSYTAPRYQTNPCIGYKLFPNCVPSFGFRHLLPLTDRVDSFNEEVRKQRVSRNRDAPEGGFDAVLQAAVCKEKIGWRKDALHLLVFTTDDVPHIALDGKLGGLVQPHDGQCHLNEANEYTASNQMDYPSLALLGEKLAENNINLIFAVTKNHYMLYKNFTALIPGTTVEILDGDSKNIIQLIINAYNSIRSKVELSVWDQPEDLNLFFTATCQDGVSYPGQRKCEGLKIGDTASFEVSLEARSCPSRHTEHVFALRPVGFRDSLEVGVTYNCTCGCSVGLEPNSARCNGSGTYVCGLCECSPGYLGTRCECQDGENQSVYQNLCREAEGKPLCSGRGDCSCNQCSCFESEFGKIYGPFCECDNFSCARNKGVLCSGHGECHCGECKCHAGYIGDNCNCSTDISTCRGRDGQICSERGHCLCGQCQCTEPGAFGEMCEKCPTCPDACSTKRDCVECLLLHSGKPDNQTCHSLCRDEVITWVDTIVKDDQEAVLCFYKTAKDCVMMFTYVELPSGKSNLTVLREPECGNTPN
- assay explanation: ELISA, integrin coated, anti-MICA-HRP
Recorded signal for the following binders

| binder | units label | signal |
| --- | --- | --- |
| soluble MICA generated by pKK39 (loop 3.4 in loop 1) (designed binder) HHHHHHEPHSLRYNLTVLSWDGSVQSGFLTEVHLDGQPFLRCDRQKCRAKPQGQWAEDVLGNKTWDRETRDLTGNGKDLRMTLAHIKDQKEGLHSLQEIRVCEIHEDNSTRSSQHFYYDGELFLSQNLETEEWTMPQSSRAQTLAMNVRNFLKEDAMKTKTHYHAMHADCLQELRRYLKSGVVLRRTVPPMVNVTRSARGDSDHRVTCRASGFYPWNITLSWRQDGVSLSHDTQQWGDVLPDGNGTYQTWVATRICQGEEQRFTCYMEHSGNHSTHPVPSGK | OD | 0.528 |
| soluble MICA generated by pKK42 (loop 5.3 in loop 1) (designed binder) HHHHHHEPHSLRYNLTVLSWDGSVQSGFLTEVHLDGQPFLRCDRQKCRAKPQGQWAEDVLGNKTWDRETRDLTGNGKDLRMTLAHIKDQKEGLHSLQEIRVCEIHEDNSTRSSQHFYYDGELFLSQNLETEEWTMPQSSRAQTLAMNVRNFLKEDAMKTKTHYHAMHADCLQELRRYLKSGVVLRRTVPPMVNVTHLARGDDLTYVTCRASGFYPWNITLSWRQDGVSLSHDTQQWGDVLPDGNGTYQTWVATRICQGEEQRFTCYMEHSGNHSTHPVPSGK | OD | 0.565 |
